These measurements were taken from patent US20230416261A1.

Each record here notes measured IC50.
# Tested on: DOHH2 cells
# testDescription: DOHH2 Long Term Phenotypic Assay (7 days, Cell Titer-Glo viability)
# Assay type: cell-based
# testParameters: Homo sapiens, DOHH-2, 168 h, Cell Titer-Glo 2.0
Write it as a number; the unit µM goes unstated.

These recorded examples may help you get a feel for the data.
{"columns": ["compound", "outputUnit", "IC50"],
 "data": [
  ["CNCCN(C)Cc1nn2c(c1C1CCC(COC)(COC)CC1)CN(C(=O)C(C)(C)C#N)CC2 [Example 37]", "µM", 0.142],
  ["CNCCN(C)Cc1nn2c(c1C1CCC(COC)(COC)CC1)CN(C(=O)C(C)(F)F)CC2 [Example 36]", "µM", 0.19],
  ["CCC1(C(=O)N2CCn3nc(CN(C)CCNC)c(C4CCC(COC)(COC)CC4)c3C2)CCC1 [Example 67]", "µM", 0.156],
  ["CNCCN(C)Cc1nn2c(c1C1CCC(COC)(COC)CC1)CN(C(=O)CC1CC1)CC2 [Example 27]", "µM", 0.079],
  ["CNCCN(C)Cc1nn2c(c1C1CCC(COC)(COC)CC1)CN(C(=O)C1(F)CC1)CC2 [Example 13]", "µM", 0.15],
  ["CNCCN(C)Cc1nn2c(c1C1CCC(COC)(COC)CC1)CN(C(C)=O)CC2 [Example 55]", "µM", 0.296],
  ["COCC1(COC)CCC(c2c(CN(C)CCN)nn3c2CN(C(=O)C24CC(C2)C4)CC3)CC1 [Example 44]", "µM", 0.15],
  ["CNCCN(C)Cc1nn2c(c1C1CCC(COC)(COC)CC1)CN(C(=O)C(C)(C)C1CCC1)CC2 [Example 78]", "µM", 0.154]
]}

Kindly note the recorded IC50 for CNCCN(C)Cc1nn2c(c1C1CCC(COC)(COC)CC1)CN(C(=O)C1(C(C)C)CCC1)CC2 [Example 64] , which is 0.23

IC50 in this record for CNCCN(C)Cc1nn2c(c1C1CCC(COC)(COC)CC1)CN(C(=O)C1(C)CCOC1)CC2 (centres unmarked) [Example 76] : 0.094

# IC50 of CNCCN(C)Cc1nn2c(c1C1CCC(COC)(COC)CC1)CN(C(=O)C1CCC1(F)F)CC2 (centres unmarked) [Example 81] = 0.296

Recorded IC50 (compound CNCCN(C)Cc1nn2c(c1C1CCC(COC)(COC)CC1)CN(C(=O)C(C)(C)O)CC2 [Example 71] ): 0.962

So for CNCCN(C)Cc1nn2c(c1C1CCC(COC)(COC)CC1)CN(C(=O)C1CC1)CC2 [Example 5] , the logged IC50 turned out to be 0.081

###

Parameter IC50: see the listing below.
# testedOn: PRMT1 (Homo sapiens, UniProt Q99873)
# Sequence (Q99873 whole entry): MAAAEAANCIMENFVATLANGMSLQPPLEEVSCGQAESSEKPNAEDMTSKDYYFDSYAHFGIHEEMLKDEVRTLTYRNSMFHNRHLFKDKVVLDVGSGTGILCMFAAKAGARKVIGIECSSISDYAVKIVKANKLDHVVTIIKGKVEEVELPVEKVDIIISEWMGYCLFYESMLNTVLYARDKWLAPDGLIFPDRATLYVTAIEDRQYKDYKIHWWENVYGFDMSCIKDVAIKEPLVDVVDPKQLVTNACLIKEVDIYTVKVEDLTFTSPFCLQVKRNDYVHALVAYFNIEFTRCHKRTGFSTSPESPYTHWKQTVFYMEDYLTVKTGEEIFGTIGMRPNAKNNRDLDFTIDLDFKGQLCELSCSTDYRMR
# testDescription: PRMT1 RKO Cellular Target Engagement Assay (In-Cell Western, asymmetric di-methyl arginine)
# Assay type: cell-based
# testParameters: RKO cells, 48 hr compound incubation; read-out: RKO IC50 (PRMT-1 Target Engagement)
Express it in nM; write the number only.

These solved cases illustrate the format of a correct answer.
{"columns": ["testSmiles", "IC50 [nM]"],
 "data": [
  ["CNCCN(C)Cc1nn2c(c1C1CCC(COC)(COC)CC1)CN(C(=O)C(C)(C)OC)CC2", 430],
  ["CNCCN(C)Cc1nn2c(c1C1CCC(COC)(COC)CC1)CN(C(=O)C1CCC1)CC2", 138],
  ["COCC1(COC)CCC(c2c(CN(C)CCN)nn3c2CN(C(=O)C2CCC(F)(F)CC2)CC3)CC1", 1240]
]}

Proceeding to the next molecule to report its IC50.
// sample `CNCCN(C)Cc1nn2c(c1C1CCC(COC)(COC)CC1)CN(C(=O)C1CC1)CC2` , its IC50 was 121

###

# testedOn: PRMT1 (Homo sapiens)
# testDescription: PRMT1 RKO Cellular Target Engagement Assay (In-Cell Western, asymmetric di-methyl arginine)
# Type: cell-based
# testParameters: RKO cells, 48 hr compound incubation; read-out: RKO IC50 (PRMT-1 Target Engagement)
Values of IC50 strictly less than 0.4 µM map to 1 (yes), and values of at least 0.4 µM map to 0 (no).

// known answers, use as guide
{"columns": ["compound", "classAssignment"],
 "data": [
  ["CNCCN(C)Cc1nn2c(c1C1CCC(COC)(COC)CC1)CN(C(=O)C1CCCC1)CC2 [Example 33]", "1 (yes)"],
  ["CNCCN(C)Cc1nn2c(c1C1CCC(COC)(COC)CC1)CN(C(=O)C1CCC(C)(C)O1)CC2 (stereo not shown) [Example 79]", "0 (no)"],
  ["CNCCN(C)Cc1nn2c(c1C1CCC(COC)(COC)CC1)CN(C(=O)C1CCC(F)(F)CC1)CC2 [Example 29]", "1 (yes)"],
  ["CNCCN(C)Cc1nn2c(c1C1CCC(COC)(COC)CC1)CN(C(=O)C(C)(C)O)CC2 [Example 71]", "0 (no)"],
  ["COCC1(COC)CCC(c2c(CN(C)CCN)nn3c2CN(C(=O)C2CC(C(F)(F)F)C2)CC3)CC1 (stereo not shown) [Example 62]", "0 (no)"]
]}

Q. IC50 under 0.4 µM? Item: CNCCN(C)Cc1nn2c(c1C1CCC(COC)(COC)CC1)CN(C(=O)C1CCOC1)CC2 (stereo not shown) [Example 35]
A. 0 (no)

Q. API: query returns whether the compound falls strictly under 0.4 µM in IC50. Query: CNCCN(C)Cc1nn2c(c1C1CCC(COC)(COC)CC1)CN(C(=O)C(C)(F)F)CC2 [Example 36]
A. 1 (yes)

Q. Field: below-cutoff. Rule: recorded IC50 strictly less than 0.4 µM. Subject: COCC1(COC)CCC(c2c(CN(C)CCN)nn3c2CN(C(=O)C2CCCC2)CC3)CC1 [Example 42]
A. 0 (no)

Q. Quick check: does CNCCN(C)Cc1nn2c(c1C1CCC(COC)(COC)CC1)CN(C(=O)C1(C)COC1)CC2 [Example 16] have IC50 under 0.4 µM?
A. 1 (yes)

Q. Please state whether IC50 is below 0.4 µM for CNCCN(C)Cc1nn2c(c1C1CCC(COC)(COC)CC1)CN(C(=O)C1(C#N)CC1)CC2 [Example 15]
A. 1 (yes)

###

# Test system: DOHH2 cells
# testDescription: DOHH2 Long Term Phenotypic Assay (7 days, Cell Titer-Glo viability)
# Assay type: cell-based
# testParameters: Cell Titer-Glo 2.0
observable: IC50 (nM)
I only need the number, in nM, no unit after it.

Data point: CNCCN(C)Cc1nn2c(c1C1CCC(COC)(COC)CC1)CN(C(=O)C1CC(C)(C)C1)CC2 [Example 77] ; IC50 = 202

###

# testedOn: PRMT1 (Homo sapiens)
# testDescription: PRMT1 RKO Cellular Target Engagement Assay (In-Cell Western, asymmetric di-methyl arginine)
# Type: cell-based
# testParameters: RKO cells, 48 hr compound incubation; read-out: RKO IC50 (PRMT-1 Target Engagement)
IC50 by entry:
Value expressed in nM; do not type the unit.

Solved cases below.
{"columns": ["compound", "testedOn", "IC50 [nM]"],
 "data": [
  ["CNCCN(C)Cc1nn2c(c1C1CCC(COC)(COC)CC1)CN(C(=O)COC)CC2", "PRMT1 (Homo sapiens)", 795],
  ["CNCCN(C)Cc1nn2c(c1C1CCC(COC)(COC)CC1)CN(C(=O)C(C)C)CC2", "PRMT1 (Homo sapiens)", 254],
  ["CNCCN(C)Cc1nn2c(c1C1CCC(COC)(COC)CC1)CN(C(=O)C1CCCCC1)CC2", "PRMT1 (Homo sapiens)", 10000]
]}

Assay PRMT1 (Homo sapiens), sample `CNCCN(C)Cc1nn2c(c1C1CCC(COC)(COC)CC1)CN(C(=O)C13CC(F)(C1)C3)CC2` , IC50 read: 185

Assay PRMT1 (Homo sapiens), sample `COCC1(COC)CCC(c2c(CN(C)CCN)nn3c2CN(C(=O)C2(F)CC2)CC3)CC1` , IC50 read: 671

Tested system PRMT1 (Homo sapiens); IC50 recorded for CNCCN(C)Cc1nn2c(c1C1CCC(COC)(COC)CC1)CN(C(=O)C1CCC(F)(F)C1)CC2 (centres unmarked) was 392

GET /values?item= `CNCCN(C)Cc1nn2c(c1C1CCC(COC)(COC)CC1)CN(C(=O)C(C)(C)COC)CC2` &system= PRMT1 (Homo sapiens) returns IC50: 203

Readout IC50 for `CNCCN(C)Cc1nn2c(c1C1CCC(COC)(COC)CC1)CN(C(=O)C1(C)CCCC1)CC2` , test system PRMT1 (Homo sapiens), was 116
